biological target: PD-1/PD-L1 interaction (PD-1-Ig / PD-L1-His) (Homo sapiens, UniProt Q9NZQ7); construct: hPDL1(18-239)-TVMV-His; TVMV protease site linker (C); made in house; host or cells: HEK293T; experiment: PD-1/PD-L1 Homogenous Time-Resolved Fluorescence (HTRF) binding assay; details: IC50 range class; PD-L1-His 10 nM, PD-1-Ig 20 nM; read-out: Range or IC50
Sequence (Q9NZQ7 with tags, fused parts or gaps): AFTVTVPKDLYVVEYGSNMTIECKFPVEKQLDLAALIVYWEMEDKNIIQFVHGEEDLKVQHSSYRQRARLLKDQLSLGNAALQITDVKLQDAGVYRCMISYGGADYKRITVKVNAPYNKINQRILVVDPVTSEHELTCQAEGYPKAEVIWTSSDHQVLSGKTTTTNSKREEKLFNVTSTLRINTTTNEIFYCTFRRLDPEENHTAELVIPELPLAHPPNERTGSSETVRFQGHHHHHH
# maps each entry to its IC50

- Compound: "N#Cc1cncc(COc2cc(OCc3cccc(-c4cccc(COc5cc(OCc6cncc(C#N)c6)c(CNC(CCO)C(=O)O)cc5Cl)c4Cl)c3Cl)c(Cl)cc2CNC(CCO)C(=O)O)c1 (stereo not drawn) [Example 40170]"
  Target under test: "PD-1/PD-L1 interaction (PD-1-Ig / PD-L1-His) (Homo sapiens, UniProt Q9NZQ7)"
  IC50: "0.04 to 20 nM"
- Compound: "Cc1c(OCCCNCCc2cccnc2)cccc1-c1cccc(OCCCN2CC[C@@H](O)C2)c1C [Example 2022]"
  Target under test: "PD-1/PD-L1 interaction (PD-1-Ig / PD-L1-His) (Homo sapiens, UniProt Q9NZQ7)"
  IC50: "0.04 to 20 nM"
- Compound: "CCN(Cc1cc(Cl)c(OCc2cccc(-c3cccc(COc4cc(OCc5cncc(C#N)c5)c(CN(CC)C(CCO)C(=O)O)cc4Cl)c3C)c2C)cc1OCc1cncc(C#N)c1)C(CCO)C(=O)O (stereo not drawn) [Example 40800]"
  Target under test: "PD-1/PD-L1 interaction (PD-1-Ig / PD-L1-His) (Homo sapiens, UniProt Q9NZQ7)"
  IC50: "0.04 to 20 nM"

----------
Known pIC50 of a selection of molecules
target: PD-1/PD-L1 interaction (PD-1-Ig / PD-L1-His) (Homo sapiens); construct: hPDL1(18-239)-TVMV-His; TVMV protease site linker (C); made in house; host or cells: HEK293T; assay: PD-1/PD-L1 Homogenous Time-Resolved Fluorescence (HTRF) binding assay; details: IC50 range class; PD-L1-His 10 nM, PD-1-Ig 20 nM; read-out: Range or IC50
pIC50: −log10 of the molar value.

- Molecule: "Cc1c(COc2cc(OCc3cncc(C#N)c3)c(CO)cc2Cl)cccc1-c1cccc(COc2cc(OCc3cncc(C#N)c3)c(CNC(C(=O)O)C(C)O)cc2Cl)c1C (centres unmarked)"
  pIC50: "7.70 to 10.40"
- Molecule: "Cc1c(OCCCN2CCC(N(C)C)CC2)cccc1-c1cccc(OCCCN2CC[C@@H](O)C2)c1C"
  pIC50: "6.00 to 7.05"
- Molecule: "Cc1c(COc2cc(OCc3cncc(C#N)c3)c(CO)cc2Cl)cccc1-c1cccc(COc2cc(OCc3cncc(C#N)c3)c(CNC(C(=O)O)C(=O)O)cc2Cl)c1C"
  pIC50: "7.70 to 10.40"
- Molecule: "Cc1c(COc2cc(OCc3cncc(C#N)c3)c(CO)cc2Cl)cccc1-c1cccc(COc2cc(OCc3cncc(C#N)c3)c(CN[C@@](C)(CO)C(=O)O)cc2Cl)c1C"
  pIC50: "7.70 to 10.40"
- Molecule: "Cc1c(COc2cc(OCc3cc(F)cc(F)c3)c(CN(C)[C@@](C)(CO)C(=O)O)cc2Cl)cccc1-c1cccc(COc2cc(OCc3cc(F)cc(F)c3)c(CN(C)[C@@](C)(CO)C(=O)O)cc2Cl)c1C"
  pIC50: "7.05 to 7.70"

----------
target: PD-1/PD-L1 interaction (PD-1-Ig / PD-L1-His) (Homo sapiens); construct: hPDL1(18-239)-TVMV-His; TVMV protease site linker (C); made in house; host or cells: HEK293T; test: PD-1/PD-L1 Homogenous Time-Resolved Fluorescence (HTRF) binding assay; conditions: numeric IC50; PD-L1-His 10 nM, PD-1-Ig 20 nM; read-out: Range or IC50
pIC50: −log10 of the molar value.

- Molecule: "COC(=O)CC(CC(C)C)NCc1cc(Cl)c(OCc2cccc(-c3cccc(COc4cc(OCc5cncc(C#N)c5)c(CNC(CC(=O)OC)CC(C)C)cc4Cl)c3C)c2C)cc1OCc1cncc(C#N)c1 (stereo not drawn)"
  pIC50: 5.04
- Molecule: "Cc1c(OCCCNC[C@H](O)c2ccccc2)cccc1-c1cccc(OCCCN2CC[C@@H](O)C2)c1C"
  pIC50: 7.09
- Molecule: "N#Cc1cncc(COc2cc(OCc3cccc(-c4cccc(COc5cc(OCc6cncc(C#N)c6)c(CN6CCC(O)(C(=O)O)CC6)cc5Cl)c4)c3)c(Cl)cc2CO)c1"
  pIC50: 6.94

----------
molecular target: PD-1/PD-L1 interaction (PD-1-Ig / PD-L1-His) (Homo sapiens); construct: hPDL1(18-239)-TVMV-His; TVMV protease site linker (C); made in house; host or cells: HEK293T; assay: PD-1/PD-L1 Homogenous Time-Resolved Fluorescence (HTRF) binding assay; conditions: IC50 range class; PD-L1-His 10 nM, PD-1-Ig 20 nM; read-out: Range or IC50
Property name: IC50

- Line notation: "Cc1c(COc2cc(OCc3cncc(C#N)c3)c(Cl)cc2Cl)cccc1-c1cccc(COc2cc(OCc3cncc(C#N)c3)c(CN[C@H](C(=O)O)[C@@H](C)O)cc2Cl)c1C"
  Value observed: "90.1 to 1000 nM"
- Line notation: "Cc1c(OCCCNCCCN2CCOCC2)cccc1-c1cccc(OCCCN2CC[C@@H](O)C2)c1C"
  Value observed: "20.1 to 90 nM"
- Line notation: "Cc1c(OCCCN(C)Cc2ccccn2)cccc1-c1cccc(OCCCN2CC[C@@H](O)C2)c1C"
  Value observed: "20.1 to 90 nM"
- Line notation: "Cc1c(OCCCN[C@H]2CC[C@H](O)CC2)cccc1-c1cccc(OCCCN2CC[C@@H](O)C2)c1C"
  Value observed: "20.1 to 90 nM"
- Line notation: "N#Cc1cncc(COc2cc(OCc3cccc(-c4cccc(COc5cc(OCc6cncc(C#N)c6)c(C(=O)N6CCSCC6)cc5Cl)c4Cl)c3Cl)c(Cl)cc2C(=O)N2CCSCC2)c1"
  Value observed: "1000 to 10000 nM"
- Line notation: "Cc1c(COc2cc(OCc3cncc(C#N)c3)c(CN[C@H](C(=O)O)[C@@H](C)OC(C)(C)C)cc2Cl)cccc1-c1cccc(COc2cc(OCc3cncc(C#N)c3)c(CN[C@H](C(=O)O)[C@@H](C)OC(C)(C)C)cc2Cl)c1C"
  Value observed: "0.04 to 20 nM"

----------
target: PD-1/PD-L1 interaction (PD-1-Ig / PD-L1-His) (Homo sapiens); construct: hPDL1(18-239)-TVMV-His; TVMV protease site linker (C); made in house; host or cells: HEK293T; assay: PD-1/PD-L1 Homogenous Time-Resolved Fluorescence (HTRF) binding assay; details: IC50 range class; PD-L1-His 10 nM, PD-1-Ig 20 nM; read-out: Range or IC50
pIC50: −log10 of the molar value.

- Compound: "Cc1c(COc2cc(OCc3cncc(C#N)c3)c(CO)cc2Cl)cccc1-c1cccc(COc2cc(OCc3cncc(C#N)c3)c(CN3CCC[C@H](C(=O)O)C3)cc2Cl)c1C"
  pIC50: "7.70 to 10.40"
- Compound: "Cc1c(COc2cc(OCc3cncc(C#N)c3)c(CN[C@@H](CO)C(=O)O)cc2Cl)cccc1-c1cccc(COc2cc(OCc3cncc(C#N)c3)c(CN[C@H](CO)C(=O)O)cc2Cl)c1C"
  pIC50: "7.70 to 10.40"
- Compound: "N#Cc1cncc(COc2cc(OCc3cccc(-c4cccc(COc5cc(OCc6cncc(C#N)c6)c(C(=O)N6CCC(O)CC6)cc5Cl)c4Cl)c3Cl)c(Cl)cc2C(=O)N2CCC(O)CC2)c1"
  pIC50: "7.70 to 10.40"
- Compound: "Cc1c(COc2cc(OCc3ccc(-n4cccn4)nc3)c(CN(C)[C@H](C(=O)O)[C@@H](C)O)cc2Cl)cccc1-c1cccc(COc2cc(OCc3ccc(-n4cccn4)nc3)c(CN(C)[C@H](C(=O)O)[C@@H](C)O)cc2Cl)c1C"
  pIC50: "7.05 to 7.70"
- Compound: "Cc1c(OCCCNCc2cccnc2)cccc1-c1cccc(OCCCN2CC[C@@H](O)C2)c1C"
  pIC50: "5.00 to 6.00"
- Compound: "Cc1c(COc2cc(OCc3cncc(C#N)c3)c(CNC(CCO)C(=O)O)cc2Cl)cccc1-c1cccc(COc2cc(OCc3cncc(C#N)c3)c(CNC(CCO)C(=O)O)cc2Cl)c1C (stereo not shown)"
  pIC50: "7.70 to 10.40"
- Compound: "CC(=O)c1cc(Cl)c(OCc2cccc(-c3cccc(COc4cc(OCc5cncc(C#N)c5)c(CN[C@@](C)(CO)C(=O)O)cc4Cl)c3Cl)c2Cl)cc1OCc1cncc(C#N)c1"
  pIC50: "7.70 to 10.40"
- Compound: "Cc1c(COc2cc(OCc3cncc(C#N)c3)c(CNC(CCO)C(=O)O)cc2Cl)cccc1-c1cccc(COc2cc(OCc3cncc(C#N)c3)c(CN(CC3CC3)C(CCO)C(=O)O)cc2Cl)c1C (stereo not shown)"
  pIC50: "7.70 to 10.40"
- Compound: "Cc1c(OCCCNCCS(C)(=O)=O)cccc1-c1cccc(OCCCN2CC[C@@H](O)C2)c1C"
  pIC50: "7.05 to 7.70"
- Compound: "Cc1c(COc2cc(OCc3cncc(C#N)c3)c(CO)cc2Cl)cccc1-c1cccc(COc2cc(OCc3cncc(C#N)c3)c(CN3CCOC[C@@H]3C(=O)O)cc2Cl)c1C"
  pIC50: "7.70 to 10.40"
- Compound: "Cc1c(COc2cc(OCc3cncc(C#N)c3)c(CNC(C(=O)O)C(C)O)cc2Cl)cccc1-c1cccc(COc2cc(OCc3cncc(C#N)c3)c(CNC(C(=O)O)C(C)O)cc2Cl)c1C (stereo not shown)"
  pIC50: "7.70 to 10.40"
- Compound: "Cc1c(OCCCN(C)CCCO)cccc1-c1cccc(OCCCN(C)CCCO)c1C"
  pIC50: "7.70 to 10.40"
- Compound: "CC(=O)c1cc(Cl)c(OCc2cccc(-c3cccc(COc4cc(OCc5cncc(C#N)c5)c(CN[C@H](C(=O)O)[C@@H](C)O)cc4Cl)c3C)c2C)cc1OCc1cncc(C#N)c1"
  pIC50: "7.70 to 10.40"
- Compound: "CC(CO)(CO)NCc1cc(Cl)c(OCc2cccc(-c3cccc(COc4cc(OCc5cncc(C#N)c5)c(CNC(C)(CO)CO)cc4Cl)c3)c2)cc1OCc1cncc(C#N)c1"
  pIC50: "7.70 to 10.40"
- Compound: "CC(=O)c1cc(Cl)c(OCc2cccc(-c3cccc(COc4cc(OCc5cncc(C#N)c5)c(CN[C@@H](C(=O)O)[C@H](C)O)cc4Cl)c3C)c2C)cc1OCc1cncc(C#N)c1"
  pIC50: "7.05 to 7.70"
- Compound: "Cc1ccccc1-c1ccc(OCCCN2CC[C@H](O)C2)c(OCCCN2CC[C@H](O)C2)c1"
  pIC50: "< 5.00"
- Compound: "Cc1c(OCCCN[C@@H]2C[C@H](CO)[C@@H](O)[C@H]2O)cccc1-c1cccc(OCCCN[C@@H]2C[C@H](CO)[C@@H](O)[C@H]2O)c1C"
  pIC50: "7.70 to 10.40"
- Compound: "Cc1c(COc2cc(OCc3cncc(C#N)c3)c(CNC(Cc3c[nH]c4ccccc34)C(=O)O)cc2Cl)cccc1-c1cccc(COc2cc(OCc3cncc(C#N)c3)c(CNC(Cc3c[nH]c4ccccc34)C(=O)O)cc2Cl)c1C (stereo not shown)"
  pIC50: "7.70 to 10.40"
- Compound: "Cc1c(OCCCN[C@@H](Cc2cccnc2)C(=O)O)cccc1-c1cccc(OCCCN2CC[C@@H](O)C2)c1C"
  pIC50: "6.00 to 7.05"
- Compound: "Cc1c(OCCCNC[C@@H](O)CO)cccc1-c1cccc(OCCCN2CC[C@@H](O)C2)c1C"
  pIC50: "6.00 to 7.05"
- Compound: "Cc1c(OCCCN2CC[C@@H](O)C2)cccc1-c1cccc(OCCCN2CC(O)C[C@H]2C(=O)O)c1C (stereo in doubt)"
  pIC50: "5.00 to 6.00"
- Compound: "Cc1c(OCCCNC[C@H](O)CO)cccc1-c1cccc(OCCCN(CCc2cccnc2)C[C@H](O)CO)c1C"
  pIC50: "7.70 to 10.40"
